# Test system: E18 rat cortical neuron-glia co-culture
# TEST_METHOD_NOTES: myelination (MBP fiber length per Olig2+ nucleus), % of 1 µM DAPT response (DMSO = 0) (% of DAPT); higher = more myelination, active = 50 or more
# ASSAY_SETUP: 1 µM; treatment time: 8 days (DIV5-DIV13)
MEASURED_QUANTITY: myelination

Below, 8 compounds whose answers are already recorded.
C[N+]1(C)CCC(OC(=O)C(O)(c2ccccc2)C2CCCC2)C1 (centres undefined) [Glycopyrrolate] :: -12.1 (inactive)
CCOc1ccc2ccccc2c1C(=O)N[C@@H]1C(=O)N2[C@@H]1SC(C)(C)[C@@H]2C(=O)O [Nafcillin] :: 4.05 (inactive)
CC(C)NCC(O)COc1ccc(CC(N)=O)cc1 (centres undefined) [Atenolol] :: 2.66 (inactive)
NNC(=O)c1ccncc1 [Isoniazid] :: -1.03 (inactive)
CN(C)CCCN1c2ccccc2CCc2ccccc21 [Imipramine] :: -3.36 (inactive)
CCCCc1nc(Cl)c(CO)n1Cc1ccc(-c2ccccc2-c2nnn[nH]2)cc1 [Losartan] :: -14.1 (inactive)
COc1ccc(Cl)cc1C(=O)NCCc1ccc(S(=O)(=O)NC(=O)NC2CCCCC2)cc1 [Glyburide] :: 1.49 (inactive)
CCC(C)(C)C(=O)O[C@H]1C[C@@H](C)C=C2C=C[C@H](C)[C@H](CC[C@@H]3C[C@@H](O)CC(=O)O3)[C@H]21 [Simvastatin] :: -17.5 (inactive)

Query: myelination for O=C(O)CCNC(=O)c1ccc(/N=N/c2ccc(O)c(C(=O)O)c2)cc1 [Balsalazide] ?
Reply: -5.47 (inactive)

Query: Returns the measured myelination for the input compound. Input: CCCSc1ccc2[nH]c(NC(=O)OC)nc2c1 [Albendazole]
Reply: 112

* * *

# Test system: E18 rat cortical neuron-glia co-culture
# TEST_METHOD_NOTES: fiber score / MBP score (myelination specific beyond OL differentiation) (ratio); higher = more myelination-specific MBP alignment
# ASSAY_SETUP: 5 µM; treatment time: 8 days (DIV5-DIV13)
Outcome: true for fiber score / MBP score of at least 0.8; false for anything lower.

CC1=C(C(=O)O)N2C(=O)[C@@H](NC(=O)[C@H](N)c3ccccc3)[C@H]2SC1 :: true

Query: Determine whether measured fiber score / MBP score meets or exceeds 0.8 for COc1ccc2c3c1O[C@H]1C[C@@H](O)C=C[C@@]31CCN(C)C2
Reply: false

Query: Could you please find out whether CNS(=O)(=O)Cc1ccc2[nH]cc(CCN(C)C)c2c1 has fiber score / MBP score that meets 0.8 or exceeds it?
Reply: true

Query: Does COc1cc(C)nc(-n2nc(C)cc2OC)n1 [Epirizole] have a reported fiber score / MBP score of at least 0.8?
Reply: false

Query: Exam item: decide whether the reported fiber score / MBP score for CN(C)c1ccc(O)c2c1C[C@H]1C[C@H]3[C@H](N(C)C)C(O)=C(C(N)=O)C(=O)[C@@]3(O)C(O)=C1C2=O is at least 0.8.
Reply: false

Query: Does fiber score / MBP score meet or surpass 0.8 for CN[C@H]1CC[C@@H](c2ccc(Cl)c(Cl)c2)c2ccccc21 ?
Reply: true

Query: In plain terms: is recorded fiber score / MBP score at least 0.8 for CNCCC=C1c2ccccc2CCc2ccccc21 ?
Reply: true

Query: Would you say OCCN(CCO)c1nc(N2CCCCC2)c2nc(N(CCO)CCO)nc(N3CCCCC3)c2n1 shows fiber score / MBP score at minimum 0.8?
Reply: false

Query: Is reported fiber score / MBP score greater than or equal to 0.8 here: CO/N=C(\C(=O)N[C@@H]1C(=O)N2C(C(=O)O)=C(COC(N)=O)CS[C@H]12)c1ccco1
Reply: false

Query: For this compound, is measured fiber score / MBP score 0.8 or higher? CCOC(=O)CCC(=O)O[C@H]1[C@H](O[C@@H]2[C@@H](C)[C@H](O[C@H]3C[C@@](C)(OC)[C@@H](O)[C@H](C)O3)[C@@H](C)C(=O)O[C@H](CC)[C@@](C)(O)[C@H](O)[C@@H](C)C(=O)[C@H](C)C[C@@]2(C)O)O[C@H](C)C[C@@H]1N(C)C [Erythromycin Ethylsuccinate]
Reply: false

Query: Is reported fiber score / MBP score greater than or equal to 0.8 here: O=c1[nH]c(=O)n(C2CCCO2)cc1F (stereo not drawn)
Reply: false

Query: Quick check, fiber score / MBP score >= 0.8? O=C(CCNNC(=O)c1ccncc1)NCc1ccccc1 [Nialamide]
Reply: false

Query: Is reported fiber score / MBP score greater than or equal to 0.8 here: C[C@@](Cc1ccc(O)c(O)c1)(NN)C(=O)O
Reply: false

Query: API: above_or_equal(metric=fiber score / MBP score, cutoff=0.8) for item CC(C)[N+]1(C)[C@@H]2CC[C@H]1C[C@@H](OC(=O)C(CO)c1ccccc1)C2 (stereo partly drawn)
Reply: true

Query: Could you please find out whether OC(CCN1CCCC1)(c1ccccc1)C1CCCCC1 (stereo not drawn) has fiber score / MBP score that meets 0.8 or exceeds it?
Reply: true
